src = ChEMBL document CHEMBL4828721

// reported remaining at 1 h, 2 µM for each item listed
procedure_details: Microsomal stability in human liver microsomes assessed as parent compound remaining at 2 uM in the presence of NADPH measured after 60 mins by RF-MS analysis
Type: ADME, Microsome
applied_conditions: read-out: Stability
Output spec: scalar in %, unitless text.

chemical_structure=C=C(/C=C/c1cccc(Cl)c1)[C@@H]1CC[C@]2(C(=O)O)CC[C@]3(C)[C@H](CC[C@@H]4[C@@]5(C)CC[C@H](O)C(C)(C)[C@@H]5CC[C@]43C)[C@@H]12 recorded_metric="remaining at 1 h, 2 µM" readout_units=% reported_measurement=81.5

Problem: Output remaining at 1 h, 2 µM of "C=C(/C=C/c1ccc([N+](=O)[O-])cc1)[C@@H]1CC[C@]2(C(=O)O)CC[C@]3(C)[C@H](CC[C@@H]4[C@@]5(C)CC[C@H](O)C(C)(C)[C@@H]5CC[C@]43C)[C@@H]12"
Result: 53.5
